System: K4 kissing-loop RNA reporter;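 note: bound reporter read as fluorescence of individual clusters on recovered sequencing chips by microscopy, with normalized cluster intensities fitted with a binding model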
PROTOCOL_TEXT: apparent KD of K4 kissing-loop reporter; higher = weaker reporter binding
STUDY_CONDITIONS: Eterna round: R107; input ligand: tryptophan 2.4 mM
For each record, write down the corresponding apparent KD of K4 kissing-loop reporter.
# output: numeric value plus its unit

[Q] Hello, please tell me recorded apparent KD of K4 kissing-loop reporter for this one: GGAUAGGACACGGCCGCCACUACCGAGGAUACUCGAAACAUUUCCUCAGAUGAGUGAUGUUCAUCUAGGACCGGGUGUCCUAUCG [KL-XTryp-B19 #analogue]
[A] 131 nM

[Q] Respond only with apparent KD of K4 kissing-loop reporter recorded for UGUACCGAGUCAGGAUAUAGCGUCGAAAGACGAAUCCUAGUGAUGUUAGGGAUCUGCGAAAGCAGUCUAGAAGGGACUUGGUACU [FmnBS 26 A19+U68]
[A] 291 nM

[Q] Name the recorded apparent KD of K4 kissing-loop reporter of the sequence listed here: CAAGGACGGCCGUAGGCAUACCGUCGAUUCAAGGAUAUCAAGAGAAUGAGAAGGUGAAGUUUAUACAGUGAUGUUGCUAUAGAGA [theeternabot_sameState_KL_FMN_A_6]
[A] 152 nM

[Q] Indicate the recorded apparent KD of K4 kissing-loop reporter value for this sequence: UGUCAUUGGUCUGAUACCAGUACCCUUGGCAGCCAAGGAGUGAUGUUCCAAGGAUACCAGUGCCCUUGGCAGCAGACCGAUGACU [TheoBS 12 #DoubleAptamer #SwitchBubble]
[A] 901 nM

Please find the next sequence below.
[Q] # return recorded apparent KD of K4 kissing-loop reporter for input ACUAUGGAGUGAUGUUCCCGCGUCAUUGAUACCAGAAUGUAUACCUUCCCUUGGCAGCAAUUCAUCGCACGUAUACUUAUACAAG [theeternabot_sameState_KL_Theo_A_31]
[A] 541 nM
